Experiment: IN Cell qHTS Assay for Inhibitors of the mTORC1 Signaling Pathway in MEF (Tsc2-/-, p53-/-) Cells: Sytravon; further: nearly all actives have a fitted effect of over 60% in size
Conditions: phospho-rpS6 immunofluorescence, 24 h; series mostly up to 38.3 µM
The campaign covered roughly 2,100 compounds. About 210 (10%) were called active. Roughly 53% stayed inconclusive and do not appear here. The call rests on the fitted dose curve; in most records, active means well fitted inhibition curve with a large enough effect; inconclusive means small, poorly fitted or top-dose-only effect, or effect the other way; inactive means no such curve, though single readings can be large or run the other way. The list shows a part of the results.
Respond only with the outcome that fits, drawn from active, inactive

Which outcome was assigned to CCCN1CCN(CCCNC(=O)c2cc3c(s2)-c2c(C)cccc2OC3)CC1 in this test?
active

Which outcome was assigned to O=C(NCC1CCN(Cc2cccc(F)c2)CC1)c1cc2ccc3cccnc3c2[nH]1 in this test?
inactive

Which outcome was assigned to CCN(CC)S(=O)(=O)c1ccc2c(c1)N(CC(=O)NCCCN1CCN(c3cc(C)ccc3C)CC1)C(=O)CO2 in this test?
inactive

Which outcome was assigned to Cc1ccc(Sc2c(C)nn(C(=O)COc3ccccc3)c2C)cc1 in this test?
active

Which outcome was assigned to Fc1ccc(-c2csc(=Nc3cccc(C(F)(F)F)c3)n2Cc2ccc3c(c2)OCO3)cc1 in this test?
inactive

Which outcome was assigned to COCCn1c(=O)[nH]c2cc(C(=O)N3CCN(c4ccc(Cl)cc4)CC3)ccc2c1=O in this test?
inactive

Which outcome was assigned to O=C(Nc1ccc(Cl)cc1F)c1cc(S(=O)(=O)NC2CCCCCC2)ccc1F in this test?
inactive
